# System: P388 mouse leukemia cells
# measurement setup: 92 h
Where a SMILES comes first, the peptide text is derived from it. [ ]: non-standard residue; d: D form. The star is where a group is joined. NHCH2CH2OH = OCCN*; For = O=C*
measure: cell viability/%
Give your result as the value with the unit written after it.

Which value of cell viability/% has been reported for CC(C)C[C@@H](NC(=O)[C@H](C)NC(=O)CNC(=O)[C@@H](NC=O)C(C)C)C(=O)N[C@@H](C)C(=O)N[C@H](CC(C)C)C(=O)N[C@H](C(=O)N[C@H](CC(C)C)C(=O)N[C@@H](Cc1c[nH]c2ccccc12)C(=O)N[C@@H](C(=O)N[C@@H](Cc1c[nH]c2ccccc12)C(=O)N[C@H](CC(C)C)C(=O)N[C@@H](Cc1c[nH]c2ccccc12)C(=O)N[C@@H](C(=O)N[C@@H](Cc1c[nH]c2ccccc12)C(=O)NCCO)[C@H](C)O)C(C)C)C(C)C [compound 5508] (For-VGA[dL]A[dL]V[dL]W[dV]W[dL]W[dT]W-NHCH2CH2OH) in the records? 100.0%

----------
# System: P388 mouse leukemia cells
# measurement setup: 92 h
Where a SMILES comes first, the peptide text is derived from it. [ ]: non-standard residue; d: D form. The star is where a group is joined. NHCH2CH2OH = OCCN*; For = O=C*
Please respond with reported cell viability/% for every item in the list.
Numbers only, in %.

1) CC(C)C[C@@H](NC(=O)[C@H](C)NC(=O)[C@H](NC(=O)[C@H](C)NC(=O)CNC(=O)[C@@H](NC=O)C(C)C)C(C)C)C(=O)N[C@H](C(=O)N[C@@H](C(=O)N[C@@H](Cc1c[nH]c2ccccc12)C(=O)N[C@H](CC(C)C)C(=O)N[C@@H](Cc1c[nH]c2ccccc12)C(=O)N[C@H](CC(C)C)C(=O)N[C@@H](Cc1c[nH]c2ccccc12)C(=O)N[C@@H](C(=O)N[C@@H](Cc1c[nH]c2ccccc12)C(=O)NCCO)C(C)C)C(C)C)C(C)C [compound 5872] (For-VGA[dV]A[dL]V[dV]W[dL]W[dL]W[dV]W-NHCH2CH2OH) :: 9.9

Note: attention shifts to another entry.
Give P388 mouse leukemia cells cell viability/% for CC(C)C[C@@H](NC(=O)[C@H](C)NC(=O)[C@H](NC(=O)[C@H](C)NC(=O)CNC(=O)[C@@H](NC=O)C(C)C)[C@H](C)O)C(=O)N[C@H](C(=O)N[C@@H](C(=O)N[C@@H](Cc1c[nH]c2ccccc12)C(=O)N[C@@H](C(=O)N[C@@H](Cc1c[nH]c2ccccc12)C(=O)N[C@H](CC(C)C)C(=O)N[C@@H](Cc1c[nH]c2ccccc12)C(=O)N[C@H](CC(C)C)C(=O)N[C@@H](Cc1c[nH]c2ccccc12)C(=O)NCCO)C(C)C)C(C)C)C(C)C [compound 9112] (For-VGA[dT]A[dL]V[dV]W[dV]W[dL]W[dL]W-NHCH2CH2OH) 72.6

----------
Please respond with reported cell viability/% for every item in the list.
# Tested on: P388 mouse leukemia cells
# measurement setup: 92 h
Where a SMILES comes first, the peptide text is derived from it. [ ]: non-standard residue; d: D form. The star is where a group is joined. NHCH2CH2OH = OCCN*; For = O=C*
One number for each entry, in %.

Below: 3 compounds and their reported cell viability/%.
1. CC(C)C[C@@H](NC(=O)[C@H](C)NC(=O)CNC(=O)[C@@H](NC=O)C(C)C)C(=O)N[C@@H](C)C(=O)N[C@@H](C(=O)N[C@H](C(=O)N[C@@H](C(=O)N[C@@H](Cc1c[nH]c2ccccc12)C(=O)N[C@H](CC(C)C)C(=O)N[C@@H](Cc1c[nH]c2ccccc12)C(=O)N[C@H](CC(C)C)C(=O)N[C@@H](Cc1c[nH]c2ccccc12)C(=O)N[C@H](CC(C)C)C(=O)N[C@@H](Cc1c[nH]c2ccccc12)C(=O)NCCO)C(C)C)C(C)C)C(C)C [compound 9000] (For-VGA[dL]A[dV]V[dV]W[dL]W[dL]W[dL]W-NHCH2CH2OH) :: 7.4
2. CC(C)C[C@@H](NC(=O)[C@H](C)NC(=O)CNC(=O)[C@@H](NC=O)C(C)C)C(=O)N[C@@H](C)C(=O)N[C@@H](C(=O)N[C@H](C(=O)N[C@@H](C(=O)N[C@@H](Cc1c[nH]c2ccccc12)C(=O)N[C@@H](C(=O)N[C@@H](Cc1c[nH]c2ccccc12)C(=O)N[C@H](CC(C)C)C(=O)N[C@@H](Cc1c[nH]c2ccccc12)C(=O)N[C@H](CC(C)C)C(=O)N[C@@H](Cc1c[nH]c2ccccc12)C(=O)NCCO)C(C)C)[C@H](C)O)C(C)C)C(C)C [compound 6225] (For-VGA[dL]A[dV]V[dT]W[dV]W[dL]W[dL]W-NHCH2CH2OH) :: 80.8
3. CNC(=O)C[C@@H](NC(=O)[C@@H](NC(=O)[C@H](NC(=O)[C@H](C)NC(=O)[C@@H](CC(C)C)NC(=O)[C@H](C)NC(=O)CNC(=O)[C@@H](NC=O)C(C)C)C(C)C)C(C)C)C(=O)N[C@@H](Cc1c[nH]c2ccccc12)C(=O)N[C@H](CC(C)C)C(=O)N[C@@H](Cc1c[nH]c2ccccc12)C(=O)N[C@@H](C(=O)N[C@@H](Cc1c[nH]c2ccccc12)C(=O)N[C@H](CC(C)C)C(=O)N[C@@H](Cc1c[nH]c2ccccc12)C(=O)NCCO)C(C)C [compound 10669] (For-VGA[dL]A[dV]V[dD](NHMe)W[dL]W[dV]W[dL]W-NHCH2CH2OH) :: 55.2

Note: attention shifts to another entry.
Which value of cell viability/% has been reported for CC(C)C[C@@H](NC(=O)[C@H](C)NC(=O)CNC(=O)[C@@H](NC=O)C(C)C)C(=O)N[C@@H](C)C(=O)N[C@@H](C(=O)N[C@H](C(=O)N[C@@H](C(=O)N[C@@H](Cc1c[nH]c2ccccc12)C(=O)N[C@@H](C(=O)N[C@@H](Cc1c[nH]c2ccccc12)C(=O)N[C@@H](C(=O)N[C@@H](Cc1c[nH]c2ccccc12)C(=O)N[C@@H](C(=O)N[C@@H](Cc1c[nH]c2ccccc12)C(=O)NCCO)C(C)C)C(C)C)C(C)C)C(C)C)C(C)C)C(C)C [compound 12092] (For-VGA[dL]A[dV]V[dV]W[dV]W[dV]W[dV]W-NHCH2CH2OH) in the records? 100.0

----------
# Test system: Streptococcus pyogenes SSI-9
# method: Antibacterial activity assay of bead-derived peptides (three concentrations)
# Type: cell-based
# Design: key: +++: inhibition by the 640-fold diluted peptide solution; ++: inhibition by the 160-fold diluted solution; +: inhibition by the 40-fold diluted solution; -: no inhibition
# measurement setup: S. pyogenes, bead-derived peptide solution, three concentrations
Where a SMILES comes first, the peptide text is derived from it. [ ]: non-standard residue; d: D form. The star is where a group is joined. NHCH2CH2OH = OCCN*; For = O=C*
measure: antibacterial activity

1) CNC(=O)C[C@@H](NC(=O)[C@H](C)NC(=O)CNC(=O)[C@@H](NC=O)C(C)C)C(=O)N[C@@H](C)C(=O)N[C@@H](C(=O)N[C@H](C(=O)N[C@@H](C(=O)N[C@@H](Cc1c[nH]c2ccccc12)C(=O)N[C@H](CC(C)C)C(=O)N[C@@H](Cc1c[nH]c2ccccc12)C(=O)N[C@H](CC(C)C)C(=O)N[C@@H](Cc1c[nH]c2ccccc12)C(=O)N[C@@H](C(=O)N[C@@H](Cc1c[nH]c2ccccc12)C(=O)NCCO)C(C)C)C(C)C)C(C)C)C(C)C [compound 11200] (For-VGA[dD](NHMe)A[dV]V[dV]W[dL]W[dL]W[dV]W-NHCH2CH2OH) :: -
2) CNC(=O)C[C@@H](NC(=O)[C@@H](NC(=O)[C@@H](CC(C)C)NC(=O)[C@H](C)NC(=O)[C@@H](CC(C)C)NC(=O)[C@H](C)NC(=O)CNC(=O)[C@@H](NC=O)C(C)C)C(C)C)C(=O)N[C@@H](Cc1c[nH]c2ccccc12)C(=O)N[C@@H](C(=O)N[C@@H](Cc1c[nH]c2ccccc12)C(=O)N[C@@H](C(=O)N[C@@H](Cc1c[nH]c2ccccc12)C(=O)N[C@H](CC(C)C)C(=O)N[C@@H](Cc1c[nH]c2ccccc12)C(=O)NCCO)C(C)C)C(C)C [compound 11228] (For-VGA[dL]A[dL]V[dD](NHMe)W[dV]W[dV]W[dL]W-NHCH2CH2OH) :: -

----------
# Test system: Streptococcus pyogenes SSI-9
# method: Antibacterial activity assay of bead-derived peptides (three concentrations)
# Format: cell-based
# Design: key: +++: inhibition by the 640-fold diluted peptide solution; ++: inhibition by the 160-fold diluted solution; +: inhibition by the 40-fold diluted solution; -: no inhibition
# measurement setup: S. pyogenes, bead-derived peptide solution, three concentrations
# Method: Each type of assay must be simplified and miniaturized to assess the activities of the library peptides in a 96-well format for the high-throughput screening. Next, the peptides in groups A and B were subjected to the antibacterial assay and structural determination. Three peptide concentrations were applied to evaluate the growth inhibition of S. pyogenes and determine the antibacterial activity. […] Finally, the structures of the peptides were determined. […]
Where a SMILES comes first, the peptide text is derived from it. [ ]: non-standard residue; d: D form. The star is where a group is joined. NHCH2CH2OH = OCCN*; For = O=C*
measure: antibacterial activity

1) CC(C)C[C@@H](NC(=O)[C@H](C)NC(=O)CNC(=O)[C@@H](NC=O)C(C)C)C(=O)N[C@@H](C)C(=O)N[C@@H](C(=O)N[C@H](C(=O)N[C@@H](C(=O)N[C@@H](Cc1c[nH]c2ccccc12)C(=O)N[C@@H](C(=O)N[C@@H](Cc1c[nH]c2ccccc12)C(=O)N[C@H](CC(C)C)C(=O)N[C@@H](Cc1c[nH]c2ccccc12)C(=O)N[C@@H](C(=O)N[C@@H](Cc1c[nH]c2ccccc12)C(=O)NCCO)C(C)C)C(C)C)[C@H](C)O)C(C)C)C(C)C [compound 5167] (For-VGA[dL]A[dV]V[dT]W[dV]W[dL]W[dV]W-NHCH2CH2OH) :: -
2) CNC(=O)C[C@@H](NC(=O)[C@H](Cc1c[nH]c2ccccc12)NC(=O)[C@H](NC(=O)[C@H](Cc1c[nH]c2ccccc12)NC(=O)[C@H](NC(=O)[C@H](Cc1c[nH]c2ccccc12)NC(=O)[C@@H](CC(C)C)NC(=O)[C@@H](NC(=O)[C@@H](CC(C)C)NC(=O)[C@H](C)NC(=O)[C@H](NC(=O)[C@H](C)NC(=O)CNC(=O)[C@@H](NC=O)C(C)C)C(C)C)C(C)C)C(C)C)C(C)C)C(=O)N[C@@H](Cc1c[nH]c2ccccc12)C(=O)NCCO [compound 3866] (For-VGA[dV]A[dL]V[dL]W[dV]W[dV]W[dD](NHMe)W-NHCH2CH2OH) :: -
